Every entry's value here was drawn from ChEMBL document CHEMBL1909046.

Assay: DRUGMATRIX: GABAA, Flunitrazepam, Central radioligand binding (ligand: [3H] Flunitrazepam)
Type: cell membranes, Rattus norvegicus, Wistar, Brain, Membrane
Details: Not Active = under 50% inhibition at 10 µM
measure: Ki

In the examples that follow, each entry is paired with its recorded Ki.
THIMEROSAL : Not Active
STANNOUS FLUORIDE : Not Active
COBALT(II) ACETYLACETONATE : Not Active
POLYVINYL ALCOHOL : Not Active

Switching to the query record.
Name the recorded Ki for INSULIN HUMAN .
Not Active

----------
Test: DRUGMATRIX: Glutamate, NMDA, Phencyclidine radioligand binding (ligand: [3H] TCP)
Type: cell membranes, Rattus norvegicus, Wistar, Cerebral cortex, Membrane
Conditions: Not Active = under 50% inhibition at 10 µM
measure: Ki

Below: 4 compounds and their reported Ki.
COc1ccccc1OCC(O)COC(N)=O (stereo not given) : Not Active
O=C(O)c1cc(=O)c2c(OCC(O)COc3cccc4oc(C(=O)O)cc(=O)c34)cccc2o1 : Not Active
CCc1oc2ccccc2c1C(=O)c1cc(Br)c(O)c(Br)c1 : Not Active
CC(CCc1ccc(O)cc1)NCCc1ccc(O)c(O)c1 (stereo not given) : Not Active

Now take the following compound into account.
Name the reported Ki value associated with the compound `COc1cc(CNC(=O)CCCC/C=C/C(C)C)ccc1O`
Not Active

----------
Target: Sigma non-opioid intracellular receptor 1 (Homo sapiens, UniProt Q99720)
Sequence (Q99720 whole entry): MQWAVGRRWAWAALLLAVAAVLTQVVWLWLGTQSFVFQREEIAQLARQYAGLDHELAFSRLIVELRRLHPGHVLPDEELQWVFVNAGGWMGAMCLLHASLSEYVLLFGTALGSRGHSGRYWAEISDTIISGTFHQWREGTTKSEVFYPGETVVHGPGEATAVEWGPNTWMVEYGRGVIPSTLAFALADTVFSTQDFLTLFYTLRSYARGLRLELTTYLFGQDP
Experiment: DRUGMATRIX: Sigma1 radioligand binding (ligand: [3H] Haloperidol)
Type: cell membranes, Jurkat, Membrane
Conditions: jurkat; Not Active = under 50% inhibition at 10 µM
measure: IC50

Examples from the recorded data:
C[C@]12CCC(=O)C=C1CC[C@@H]1[C@@H]2[C@@H](O)C[C@@]2(C)[C@H]1CC[C@]2(O)C(=O)CO [HYDROCORTISONE] : Not Active
OCCO : Not Active
COC(=O)c1ccccc1O [METHYL SALICYLATE] : Not Active
CN1C[C@H](C(=O)N[C@]2(C)O[C@@]3(O)[C@@H]4CCCN4C(=O)[C@H](Cc4ccccc4)N3C2=O)C[C@@H]2c3cccc4[nH]cc(c34)C[C@H]21 [DIHYDROERGOTAMINE] : Not Active
O=P1(N(CCCl)CCCl)NCCCO1 (stereo not given) [CYCLOPHOSPHAMIDE ANHYDROUS] : Not Active
N[C@@H](Cc1ccc(F)cc1)C(=O)O : Not Active
CN(Cc1cnc2nc(N)nc(N)c2n1)c1ccc(C(=O)N[C@@H](CCC(=O)O)C(=O)O)cc1 [METHOTREXATE] : Not Active
O=c1cc(-c2ccccc2)oc2ccc3ccccc3c12 : Not Active

Request the reported IC50 associated with `C[C@]12C/C(=C/O)C(=O)C[C@@H]1CC[C@@H]1[C@@H]2CC[C@@]2(C)[C@H]1CC[C@]2(C)O`
Not Active

Also, `COc1ncnc(NS(=O)(=O)c2ccc(N)cc2)c1OC` please.
Not Active

----------
Assay: DRUGMATRIX: Phosphodiesterase PDE3 enzyme inhibition (substrate: [3H]cAMP + cAMP)
Assay type: tissue-based, Homo sapiens
Conditions: platelet; Not Active = under 50% inhibition at 10 µM
measure: IC50

Consider the reported IC50 for these compounds:
Cc1cccc(Nc2cc(Cl)nc(SCC(=O)O)n2)c1C [PIRINIXIC ACID] : Not Active
CC1=C(CC(=O)O)c2cc(F)ccc2/C1=C\c1ccc(S(C)(=O)=O)cc1 [EXISULIND] : Not Active
COc1ccc2cc(CCC(C)=O)ccc2c1 [NABUMETONE] : Not Active
CC(C)(Sc1cc(C(C)(C)C)c(O)c(C(C)(C)C)c1)Sc1cc(C(C)(C)C)c(O)c(C(C)(C)C)c1 [PROBUCOL] : Not Active
Nc1nc(N)nc(NC2CC2)n1 [CYROMAZINE] : Not Active

What does the record list as IC50 for `CCCc1nn(C)c2c(=O)[nH]c(-c3cc(S(=O)(=O)N4CCN(C)CC4)ccc3OCC)nc12` ?
Not Active

Try this compound too: CCOC(=O)C1=C(C)NC(C)=C(C(=O)OC)C1c1cccc(Cl)c1Cl (centres undefined) [FELODIPINE]
Not Active

Item: COc1ncnc(NS(=O)(=O)c2ccc(N)cc2)c1OC [SULFADOXINE]
Not Active

Field entry: CC(CCc1ccc(O)cc1)NCCc1ccc(O)c(O)c1 (centres undefined) [DOBUTAMINE]
Not Active

----------
Target: Tyrosine-protein kinase Fyn (Homo sapiens);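 also: enzymatic inhibition of Fyn kinase activity measured with Poly(Glu:Tyr) as the phosphorylation substrate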; also: in other assays of this panel Not Active means under 50% inhibition at 10 µM
Sequence (P06241 whole entry): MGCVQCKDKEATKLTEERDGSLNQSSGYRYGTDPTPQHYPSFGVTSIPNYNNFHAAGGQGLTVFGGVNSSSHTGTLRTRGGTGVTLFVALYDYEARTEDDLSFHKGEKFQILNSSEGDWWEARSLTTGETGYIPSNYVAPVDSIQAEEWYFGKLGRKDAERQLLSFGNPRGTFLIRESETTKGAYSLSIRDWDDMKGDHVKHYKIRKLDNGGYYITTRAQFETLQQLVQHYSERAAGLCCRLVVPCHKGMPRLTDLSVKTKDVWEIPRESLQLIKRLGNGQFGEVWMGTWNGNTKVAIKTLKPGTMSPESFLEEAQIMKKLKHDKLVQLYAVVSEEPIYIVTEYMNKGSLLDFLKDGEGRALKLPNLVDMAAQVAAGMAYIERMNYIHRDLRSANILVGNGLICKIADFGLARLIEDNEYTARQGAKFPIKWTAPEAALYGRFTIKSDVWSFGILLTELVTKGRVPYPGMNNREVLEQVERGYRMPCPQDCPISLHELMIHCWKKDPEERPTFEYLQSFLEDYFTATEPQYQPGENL
Experiment: biochemical
Assay type: cell-based, Insect cells
Settings: insect cells
measure: IC50

Please review the following examples before continuing.
O=C(O)c1cc(=O)c2c(OCC(O)COc3cccc4oc(C(=O)O)cc(=O)c34)cccc2o1 : Not Active
C[C@@H](O)[C@H]1C(=O)N2C(C(=O)O)=C(S[C@@H]3CN[C@H](C(=O)N(C)C)C3)[C@H](C)[C@H]12 : Not Active
CC(C)(Sc1cc(C(C)(C)C)c(O)c(C(C)(C)C)c1)Sc1cc(C(C)(C)C)c(O)c(C(C)(C)C)c1 : Not Active
CCOC(=O)C1=C(C)NC(C)=C(C(=O)OC)C1c1cccc(Cl)c1Cl (stereo not drawn) : Not Active
Nc1ccc(S(=O)(=O)Nc2ncccn2)cc1 : Not Active
CC(C)(C)NC[C@H](O)COc1nsnc1N1CCOCC1 : Not Active

# query: IC50 of entry `Clc1cc2c(cc1Cl)Oc1cc(Cl)c(Cl)cc1O2`
Not Active

Next: `C=C(CC)C(=O)c1ccc(OCC(=O)O)c(Cl)c1Cl`
Not Active

----------
Experiment: DRUGMATRIX: Calcium Channel Type L, Benzothiazepine radioligand binding (ligand: [3H] Diltiazem)
Format: cell membranes, Rattus norvegicus, Wistar, Brain, Membrane
Conditions: Not Active = under 50% inhibition at 10 µM; read-out: IC50
Attribute: IC50
Just the number please, in µM, no unit attached.

Please review the following examples before continuing.
C[C@@H]1C[C@H]2[C@@H]3CCC4=CC(=O)C=C[C@]4(C)C3=CC[C@]2(C)[C@H]1C(=O)CN1CCN(c2cc(N3CCCC3)nc(N3CCCC3)n2)CC1 : 2.69
CCOC(=O)C1=C(C)NC(C)=C(C(=O)OC)C1c1cccc(Cl)c1Cl (centres undefined) : 0.023
C#C[C@]1(O)CC[C@H]2[C@@H]3CCC4=Cc5oncc5C[C@]4(C)[C@H]3CC[C@@]21C : 14.6

Now examine the next entry.
Entry `C#C[C@]1(O)CC[C@H]2[C@@H]3CCc4cc(O)ccc4[C@H]3CC[C@@]21C` has what IC50?
15.4

----------
Experiment: DRUGMATRIX: Calcium Channel Type L, Phenylalkylamine radioligand binding (ligand: [3H] (-)-Desmethoxyverapamil (D-888))
Assay type: cell membranes, Rattus norvegicus, Wistar, Brain, Membrane
Settings: Not Active = under 50% inhibition at 10 µM; read-out: Ki
Reported pKi values follow for various compounds
Here pKi is given on a logarithmic scale as minus log10 of the concentration in mol/L.

In the examples that follow, each entry is paired with its recorded pKi.
C#C[C@]1(O)CC[C@H]2[C@@H]3CCc4cc(O)ccc4[C@H]3CC[C@@]21C : 5.17
C#C[C@]1(O)CC[C@H]2[C@@H]3CCC4=Cc5oncc5C[C@]4(C)[C@H]3CC[C@@]21C : 4.85
C[C@@H]1C[C@H]2[C@@H]3CCC4=CC(=O)C=C[C@]4(C)C3=CC[C@]2(C)[C@H]1C(=O)CN1CCN(c2cc(N3CCCC3)nc(N3CCCC3)n2)CC1 : 5.61

Would you kindly look at the next entry?
Suppose we examine the compound `CC[C@H](C)C(=O)O[C@H]1C[C@@H](C)C=C2C=C[C@H](C)[C@H](CC[C@@H]3C[C@@H](O)CC(=O)O3)[C@H]21` ; what pKi value has been reported?
5.21

----------
Assay: DRUGMATRIX: Sigma2 radioligand binding (ligand: [3H] Ifenprodil)
Format: cell membranes, Rattus norvegicus, Wistar, Brain, Membrane
Conditions: Not Active = under 50% inhibition at 10 µM; read-out: IC50
measure: pIC50
Give only the number. pIC50 is defined as minus log10 of concentration in molar units.

Fill in the blank: the reported pIC50 of CC(CCc1ccc(O)cc1)NCCc1ccc(O)c(O)c1 (stereo unspecified) [DOBUTAMINE] is ____.
5.59

----------
Target: Voltage-gated inwardly rectifying potassium channel KCNH2 (Homo sapiens, UniProt Q12809); also: in other assays of this panel Not Active means under 50% inhibition at 10 µM
Sequence (Q12809 whole entry): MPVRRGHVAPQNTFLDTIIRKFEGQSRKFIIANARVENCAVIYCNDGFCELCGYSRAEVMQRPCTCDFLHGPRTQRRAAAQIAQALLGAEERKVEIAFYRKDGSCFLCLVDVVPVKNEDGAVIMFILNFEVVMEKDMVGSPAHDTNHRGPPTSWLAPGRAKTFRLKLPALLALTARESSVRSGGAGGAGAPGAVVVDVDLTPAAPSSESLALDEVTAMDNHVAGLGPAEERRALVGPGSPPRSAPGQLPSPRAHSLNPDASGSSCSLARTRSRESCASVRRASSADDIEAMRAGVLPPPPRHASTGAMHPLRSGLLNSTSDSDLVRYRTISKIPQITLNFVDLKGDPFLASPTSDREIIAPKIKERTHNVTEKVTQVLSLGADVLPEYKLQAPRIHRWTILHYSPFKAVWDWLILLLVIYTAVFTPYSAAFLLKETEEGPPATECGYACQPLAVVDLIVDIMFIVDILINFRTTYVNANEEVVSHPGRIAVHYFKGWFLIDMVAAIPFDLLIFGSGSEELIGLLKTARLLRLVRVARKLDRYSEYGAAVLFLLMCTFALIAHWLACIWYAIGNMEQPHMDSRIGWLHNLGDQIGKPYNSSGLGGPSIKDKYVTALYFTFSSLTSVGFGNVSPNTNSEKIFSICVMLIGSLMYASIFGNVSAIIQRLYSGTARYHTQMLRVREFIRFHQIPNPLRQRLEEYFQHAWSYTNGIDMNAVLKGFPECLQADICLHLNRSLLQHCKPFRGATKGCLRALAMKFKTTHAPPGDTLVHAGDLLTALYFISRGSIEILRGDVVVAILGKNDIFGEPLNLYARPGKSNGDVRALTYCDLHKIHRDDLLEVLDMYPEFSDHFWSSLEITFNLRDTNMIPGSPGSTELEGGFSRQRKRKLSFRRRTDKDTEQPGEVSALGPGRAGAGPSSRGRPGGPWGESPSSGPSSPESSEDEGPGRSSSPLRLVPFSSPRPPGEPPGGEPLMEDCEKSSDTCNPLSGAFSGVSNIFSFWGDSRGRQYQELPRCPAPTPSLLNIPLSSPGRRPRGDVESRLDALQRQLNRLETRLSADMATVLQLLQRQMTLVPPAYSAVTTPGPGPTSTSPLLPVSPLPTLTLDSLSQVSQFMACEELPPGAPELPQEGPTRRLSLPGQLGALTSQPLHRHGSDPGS
measure: Ki

Given the molecule OCCN1CCN(CCCN2c3ccccc3Sc3ccc(C(F)(F)F)cc32)CC1 [FLUPHENAZINE] , what is its reported Ki?
4.67 µM

----------
Experiment: DRUGMATRIX: Sodium/nucleoside co-transporter radioligand binding (ligand: nitrobenzylthioinosine)
Assay type: cell membranes, Cavia porcellus, Dunkin-Hartley, Cerebral cortex, Membrane
Settings: Not Active = under 50% inhibition at 10 µM
measure: Ki

CC[C@H]1OC(=O)[C@H](C)[C@@H](O[C@H]2C[C@@](C)(OC)[C@@H](O)[C@H](C)O2)[C@H](C)[C@@H](O[C@@H]2O[C@H](C)C[C@H](N(C)C)[C@H]2O)[C@](C)(O)C[C@@H](C)CN(C)[C@H](C)[C@@H](O)[C@]1(C)O [AZITHROMYCIN] : Not Active
NC[C@H]1O[C@H](O[C@H]2[C@H](O)[C@@H](O[C@H]3O[C@H](CO)[C@@H](O)[C@H](N)[C@H]3O)[C@H](N)C[C@@H]2N)[C@H](N)C[C@@H]1O [TOBRAMYCIN] : Not Active
COc1ccccc1OCC(O)CO (stereo not drawn) [GUAIFENESIN] : Not Active
